Provenance of the data: paper PMC9482650

target-entity: T1, ARHGEF11, O15085
T1 sequence (O15085 42-136, limits assumed, looked up): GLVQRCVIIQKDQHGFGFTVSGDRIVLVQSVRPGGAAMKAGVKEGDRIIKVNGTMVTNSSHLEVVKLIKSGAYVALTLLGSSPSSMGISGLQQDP
assay-text: holdup assay
Design: key: below the threshold = too weak to quantify, mostly under pKd 3.1 to 4
reported-conditions: plain residues with an end cap or a label only (N-terminal biotin on a linker: ado-ado)
endpoint: pKd

QKASRNESTF [POLR1D, P0DPB6]: below the threshold
TKDKVQETQI [LRRC4, Q9HBW1]: 3.73
PAALPESTHM [SLC9A3, P48764]: below the threshold
TFSRRPKTRV [CD226, Q15762]: 4.06

Next item in the queue.
Ask: Item under review: TKEIPNCTSV [SORCS3, Q9UPU3] . Reported pKd?
Reply: 4.82
